TESTED TARGET: T1, recombinant human LAG-3-his protein (Novoprotein) (human, UniProt P18627 23-450)
T1 construct: Bought; also called huLAG-3; not shown: His tag
T1 sequence (looked up): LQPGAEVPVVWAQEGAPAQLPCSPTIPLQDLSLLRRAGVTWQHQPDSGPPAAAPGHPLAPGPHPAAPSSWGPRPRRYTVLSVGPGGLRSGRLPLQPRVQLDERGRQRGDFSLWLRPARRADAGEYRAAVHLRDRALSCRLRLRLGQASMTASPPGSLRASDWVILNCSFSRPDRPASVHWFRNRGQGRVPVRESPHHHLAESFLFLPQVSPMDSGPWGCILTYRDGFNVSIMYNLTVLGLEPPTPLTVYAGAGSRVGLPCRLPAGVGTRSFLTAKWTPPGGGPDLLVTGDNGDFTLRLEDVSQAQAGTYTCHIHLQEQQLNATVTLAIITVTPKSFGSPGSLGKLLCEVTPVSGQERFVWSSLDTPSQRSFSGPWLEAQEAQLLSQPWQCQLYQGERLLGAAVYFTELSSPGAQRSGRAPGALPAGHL
PROCEDURE DETAILS: BLI Octet, Ab on AHC sensor, huLAG-3-his; test group 1
ENDPOINT LABEL: off-rate ratio to that of mAb747c (%)
Number only, in %; omit the unit.

BINDER: B2-53-IgG (antibody, V domains shown, human IgG1/kappa constant domains; also called B82-53) VH: EVQLVQSGAEVKKPGASVKVSCKASGFNIKDDYMHWVRQAPGQGLEWIGWIVPENGNTVYASKFQGRVTITADTSINTAYMELSRLRSDDTAVYYCTVYGDYWGQGTTVTVSS VL: DIQMTQSPSSLSASVGDRVTINCRASQEISGYLSWLQQKPEGTIKRLIYAASALDSGVPSRFSGSRSGSDYTLTISSLQPEDFATYYCLQYASYPLTFGGGTKVEIK
off-rate ratio to that of mAb747c, %: 120

B3-69-IgG (antibody, V domains shown, human IgG1/kappa constant domains) VH: EVQLVQSGAEVKKPGASVKVSCKASGFNIKDDYMHWVRQAPGQGLEWIGWIVPENGNTHYASKFQGRVTITADTSINTAYMELSRLRSDDTAVYYCTVYGDYWGQGTTVTVSS VL: DIQMTQSPSSLSASVGDRVTINCRASQEISGYLSWLQQKPEGTIKRLIYEASTLDSGVPSRFSGSRSGSDYTLTISSLQPEDFATYYCLQYASYPLTFGGGTKVEIK yielded off-rate ratio to that of mAb747c of 239

Entry under test: B3-43-IgG (antibody, V domains shown, human IgG1/kappa constant domains) VH: EVQLVQSGAEVKKPGASVKVSCKASGFNIKDDYMHWVCQAPGQGLEWIGWIVPENGNTEYASKFQGRVTITADTSINTAYMELSRLRSDDTAVYYCTVYGDYWGQGTTVTVSS VL: DIQMTQSPSSLSASVGDRVTINCRASQEISGYLSWLQQKPEGTIKRLIYAASHLDSGVPSRFSGSRSGSDYTLTISSLQPEDFATYYCLQYASYPLTFGGGTKVEIK . Its off-rate ratio to that of mAb747c was 392

Entry B3-48-IgG (antibody, V domains shown, human IgG1/kappa constant domains) VH: EVQLVQSGAEVKKPGASVKVSCKASDFSIKDDYMHWVRQAPGQGLEWIGWIVPENGKTEYASKFQGRVTITADTSINTAYMELSRLRSDDTAVYYCTVYGDYWGQGTTVTVSS VL: DIQMTQSPSSLSASVGDRVTINCRASQEISGYLSWLQQKPEGTIKRLIYAAMTLDSGVPSRFSGSRSGSDYTLTISSLQPEDFATYYCLQYASYPLTFGGGTKVEIK — recorded off-rate ratio to that of mAb747c = 190

Hey, just so you know, these numbers are from patent US20210188980A1.
